Some variants, each annotated with its measured protein stability index.
B1: TRAF3IP2 (parent)
chain: YGHDYPRAAYQQVIQPALPGQPLP

variants of: B1; test: protein stability index of a GFP-peptide fusion (GPS, HEK-293T) (PSI 1-6); higher = more stable; conditions: c terminus: a fixed tail appended;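 also: lentivirally expressed fusions sorted by FACS into six bins by GFP to DsRed ratio, PSI derived from sequencing read proportions per bin multiplied by bin number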

Past entries and their recorded results:
* A17N | 1.29
* A8I | 2.57

Okay, next one:
Given item Q21N , the value recorded as its protein stability index is 2.08

These entries and their values trace back to the supplement of paper PMC10567573.
